- TESTED TARGET: neutral endopeptidase (NEP) (Homo sapiens)
- Sequence (P08473 whole entry): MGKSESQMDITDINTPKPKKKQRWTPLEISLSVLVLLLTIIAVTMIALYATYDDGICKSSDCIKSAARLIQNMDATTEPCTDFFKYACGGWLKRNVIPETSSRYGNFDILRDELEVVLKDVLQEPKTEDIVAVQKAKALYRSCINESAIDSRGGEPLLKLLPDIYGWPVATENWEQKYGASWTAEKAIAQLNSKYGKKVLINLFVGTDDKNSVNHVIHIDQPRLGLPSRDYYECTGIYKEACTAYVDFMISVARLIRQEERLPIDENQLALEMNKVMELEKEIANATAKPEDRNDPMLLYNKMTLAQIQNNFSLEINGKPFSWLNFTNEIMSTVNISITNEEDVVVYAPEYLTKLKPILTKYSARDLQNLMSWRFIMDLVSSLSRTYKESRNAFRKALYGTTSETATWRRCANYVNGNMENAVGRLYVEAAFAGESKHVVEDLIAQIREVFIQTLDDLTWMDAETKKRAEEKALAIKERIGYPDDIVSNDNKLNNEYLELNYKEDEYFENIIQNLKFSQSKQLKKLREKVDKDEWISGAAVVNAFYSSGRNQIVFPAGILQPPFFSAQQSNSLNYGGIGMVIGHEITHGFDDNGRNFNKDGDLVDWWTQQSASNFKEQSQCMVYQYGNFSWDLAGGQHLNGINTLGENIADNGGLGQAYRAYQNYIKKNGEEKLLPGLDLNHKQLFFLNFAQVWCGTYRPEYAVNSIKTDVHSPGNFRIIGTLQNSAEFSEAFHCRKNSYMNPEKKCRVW
- ASSAY METHOD TEXT: in vitro
- ASSAY SETUP: isolated enzyme neprilysin, pH 7.5
EXPERIMENTAL ENDPOINT: remaining at 4 h

1) CC[C@H](C)[C@@H]1NC(=O)[C@H](CCCNC(=N)N)NC(=O)[C@H](CC(=O)O)NC(=O)[C@H](CC(C)C)NC(=O)[C@H](CCCCN)NC(=O)[C@H](CC(C)C)NC(=O)CNC(=O)[C@H](Cc2ccccc2)NC(=O)[C@@H](NC(=O)CNC(=O)[C@H](CCCCN)NC(=O)[C@H](CO)NC(=O)[C@H](CC(C)C)NC(=O)CN)CSSC[C@@H](C(=O)O)NC(=O)CNC(=O)[C@H](CC(C)C)NC(=O)CNC(=O)[C@H](CO)NC(=O)[C@H](CCSC)NC(=O)[C@H](CO)NC(=O)CNC1=O [CNP22, reference compound]: 0%

* * *

- TESTED TARGET: NPR-B (Homo sapiens, UniProt P20594)
- Sequence (P20594 23-1047): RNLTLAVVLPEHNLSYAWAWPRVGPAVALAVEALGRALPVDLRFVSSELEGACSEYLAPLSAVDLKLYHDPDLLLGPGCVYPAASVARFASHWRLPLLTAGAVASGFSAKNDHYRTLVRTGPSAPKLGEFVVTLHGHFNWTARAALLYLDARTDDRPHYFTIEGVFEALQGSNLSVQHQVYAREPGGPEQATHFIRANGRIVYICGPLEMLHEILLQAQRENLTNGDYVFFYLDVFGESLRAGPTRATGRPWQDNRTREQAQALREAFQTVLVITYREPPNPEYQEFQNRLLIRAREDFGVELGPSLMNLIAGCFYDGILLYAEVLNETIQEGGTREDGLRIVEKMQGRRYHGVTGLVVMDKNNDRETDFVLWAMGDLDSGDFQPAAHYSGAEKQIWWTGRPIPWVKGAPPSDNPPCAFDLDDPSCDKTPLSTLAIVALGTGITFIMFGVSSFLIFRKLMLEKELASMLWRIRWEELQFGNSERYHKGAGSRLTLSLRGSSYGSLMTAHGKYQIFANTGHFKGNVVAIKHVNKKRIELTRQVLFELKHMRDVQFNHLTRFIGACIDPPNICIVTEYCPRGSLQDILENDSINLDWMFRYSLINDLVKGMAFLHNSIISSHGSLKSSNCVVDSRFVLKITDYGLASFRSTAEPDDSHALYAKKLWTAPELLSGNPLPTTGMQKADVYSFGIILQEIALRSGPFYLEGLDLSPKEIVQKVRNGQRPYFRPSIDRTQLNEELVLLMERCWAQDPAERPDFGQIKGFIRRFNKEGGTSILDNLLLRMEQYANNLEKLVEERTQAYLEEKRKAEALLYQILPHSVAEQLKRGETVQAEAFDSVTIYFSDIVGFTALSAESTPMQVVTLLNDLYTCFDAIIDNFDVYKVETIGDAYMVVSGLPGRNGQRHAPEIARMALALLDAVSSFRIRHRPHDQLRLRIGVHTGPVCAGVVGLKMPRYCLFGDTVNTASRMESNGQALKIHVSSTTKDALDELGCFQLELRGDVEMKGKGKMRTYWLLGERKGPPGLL
- ASSAY METHOD TEXT: Whole cell guanylyl cyclase (cGMP) assay, NPR-B
- Assay type: cell-based
- Design: expressed in transfected cells
- ASSAY SETUP: read-out: % Efficacy
Bridge positions count the residues as written; N and C are the ends. Ends that are not written are not given here.
EXPERIMENTAL ENDPOINT: Emax (%)

1) EEEEEEHKLRGQEHPNARKYKGANKKGLSKGCFGLKLDRIGSMSGLGC (disulfide 32-48) [KB1(E6)]: 109
2) EEEEEEASTSPANPQPAASSPGLSKGCFGLKLDRIGSMSGLGC (disulfide 27-43) [C2(E6) [BC2]]: 97
3) EEEEEESGGGGSGGGQGANQQGLSKGCFGLKLDRIGSMSGLGC (disulfide 27-43) [C5(E6) [BC5]]: 96
4) EEEEEESGGGGSGGGQGANKQGLSKGCFGLKLDRIGSMSGLGC (disulfide 27-43) [C11(E6) [BC11]]: 95
5) EEEEEESGGGGSGGGKGANQQGLSKGCFGLKLDRIGSMSGLGC (disulfide 27-43) [C9(E6) [BC9]]: 95
6) EEEEEESGGGGSGGGQGANKKGLSKGCFGLKLDRIGSMSGLGC (disulfide 27-43) [C8(E6) [BC8]]: 97
7) EEEEEESGGGGSGGGGSGGGGGLSKGCFGLKLDRIGSMSGLGC (disulfide 27-43) [C1(E6) [BC1]]: 97
8) EEEEEEHGPQGQEHPNARKYKGANKKGLSKGCFGLKLDRIGSMSGLGC (disulfide 32-48) [KA1(E6)]: 108
9) GLSKGCFGLKLDRIGSMSGLGCGGGGSGGGGSGGGGDDDDDD (disulfide 6-22) [CNP-14AAlinker-D6 [C4]]: 156
10) EEEEEESGGGGSGGGKGANKKGLSKGCFGLKLDRIGSMSGLGC (disulfide 27-43) [C4(E6) [BC4]]: 136
